Molecular target: T1, Siglec-7-Fc (plate immobilized) (human, UniProt Q9Y286 19-357, limits assumed)
T1 construct: also called Siglec-7-Fc protein; immobilized Siglec-7; not shown: Fc part
T1 sequence (Q9Y286 19-357 limits assumed): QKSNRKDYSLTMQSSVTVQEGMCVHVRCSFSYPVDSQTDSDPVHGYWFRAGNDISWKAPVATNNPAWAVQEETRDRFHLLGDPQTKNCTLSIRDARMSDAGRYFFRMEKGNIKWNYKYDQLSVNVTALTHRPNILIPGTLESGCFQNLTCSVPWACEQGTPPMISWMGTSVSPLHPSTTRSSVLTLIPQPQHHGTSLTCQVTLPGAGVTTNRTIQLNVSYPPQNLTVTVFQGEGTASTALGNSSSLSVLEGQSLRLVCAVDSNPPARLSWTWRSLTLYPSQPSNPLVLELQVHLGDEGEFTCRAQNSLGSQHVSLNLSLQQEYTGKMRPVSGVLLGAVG
Assay: RBC solid adhesion assay, plate-coated Siglec-7-Fc, antibody 0.5 or 1.0 ug/ml; % of RBC binding without antibody
observedProperty: Percent RBC Binding to Siglec-7 (%)
Please give a number only; it is taken to be in %.

// known answers, use as guide
binder | measuredValue
anti-Siglec-7 antibody 10G8 (antibody, V domains shown, Variable domains assembled from FR and CDR entries) VH: EVKLVEFGGALVKPGGSLKLSCAALGFTFSTYAMFRVRQTPEKREEGVASISSGGRYTYYPDSAKDRHPIFRDNARNTLYLQMSSLRSKDTAMYYCVRHSYGSSYWYLDVWGAGTTVTVSS VL: DIQMTQFPATLSGTPGDRVZLSRRASQSIREYLHWYQQKSHESPRLZIKFASQSICGIPSRFSGSGSGSDFTLSINTVEPEDVGVYYCQKAHNFPYTFGGGTKLEIK | 111
anti-Siglec-7 antibody 7A3 (antibody, V domains shown, Variable domains assembled from FR and CDR entries; VL FR1 and VH FR1 hold Z and VH FR1 looks shortened at its N-terminus) VH: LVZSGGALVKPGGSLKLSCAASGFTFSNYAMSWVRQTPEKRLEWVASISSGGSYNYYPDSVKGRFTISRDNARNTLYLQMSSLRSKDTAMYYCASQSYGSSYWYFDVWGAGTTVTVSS VL: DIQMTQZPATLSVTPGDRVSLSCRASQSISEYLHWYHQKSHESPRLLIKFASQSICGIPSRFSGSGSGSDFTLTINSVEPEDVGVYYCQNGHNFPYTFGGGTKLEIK | 89.5

Query: Which Percent RBC Binding to Siglec-7 value belongs to anti-Siglec-7 antibody 1A12 (antibody, V domains shown, also called 1Al2) VH: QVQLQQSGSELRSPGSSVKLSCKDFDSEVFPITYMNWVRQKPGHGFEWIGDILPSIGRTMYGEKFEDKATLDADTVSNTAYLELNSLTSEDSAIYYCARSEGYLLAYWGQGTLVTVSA VL: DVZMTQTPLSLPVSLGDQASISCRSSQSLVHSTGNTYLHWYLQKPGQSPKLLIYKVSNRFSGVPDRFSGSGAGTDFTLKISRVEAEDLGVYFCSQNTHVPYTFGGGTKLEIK ?
Response: 16.5
